IC50 values for MAPKAPK5 (Homo sapiens, UniProt Q8IW41), compiled from several publications.

CC(C)N1C[C@H]2C[C@@H]1CN2c1ccc(Nc2ncc(-c3coc(C(N)=O)c3)n3ncnc23)cc1 ... 0.01 to 100 nM
CCc1cnc2c(Nc3ccc(N4CCOCC4)cc3)ncc(-c3cc[nH]c(=O)c3)n12 ... > 1000 nM
OCc1cc(-c2cnc(Nc3ccc(N4CCOCC4)cc3)c3ncnn23)ccn1 ... > 1000 nM

Here's the next entry for you.
// query Enter measured IC50, system MAPKAPK5 (Homo sapiens, UniProt Q8IW41), for the molecule shown: CSCCNC(=O)c1ccc(Nc2ncc(-c3cn[nH]c3)n3ncnc23)cc1
// result 501 to 1000 nM

* * *

IC50 values for MAPKAPK5 (Homo sapiens, UniProt Q8IW41), compiled from several publications.

The examples below pair each entry with its known result.
CNC(=O)c1ccc(-c2cnc(Nc3ccc(N4CCN(C)CC4)cc3)c3nccn23)cc1 ... > 1000 nM
O=C1NCc2cc(-c3cnc(Nc4nnc(CCN5CCCCC5)s4)c4nccn34)ccc21 ... 501 to 1000 nM
CCN(CC)CCNC(=O)c1ccc(Nc2ncc(-c3nn[nH]n3)n3ccnc23)cc1 ... > 1000 nM

// query Consider the compound O=C1NCc2cc(-c3cnc(NC4CCCCC4)c4ncnn34)ccc21 and give its recorded IC50.
// result 101 to 500 nM

// query Consider the compound CS(=O)(=O)c1ccc(Nc2ncc(-c3cn[nH]c3)n3ccnc23)cc1 and give its recorded IC50.
// result 101 to 500 nM

// query Consider the compound NC(=O)c1ccc(-c2cnc(Nc3ccc(C(=O)NCc4cccnc4)cc3)c3nccn23)cc1 and give its recorded IC50.
// result > 1000 nM

// query Consider the compound COc1cc(Nc2ncc(-c3cn[nH]c3)n3ccnc23)ccc1C(=O)NCc1ccccc1 and give its recorded IC50.
// result > 1000 nM

// query Consider the compound NC(=O)c1cc(-c2cnc(Nc3ccc(OCCN4CCOCC4)cc3)c3ncnn23)cs1 and give its recorded IC50.
// result 101 to 500 nM

// query Consider the compound O=C(Nc1cn(Cc2ccccc2)cn1)c1ccc(Nc2ncc(-c3cn[nH]c3)n3ncnc23)cc1 and give its recorded IC50.
// result > 1000 nM

* * *

IC50 values for MAPKAPK5 (Homo sapiens, UniProt Q8IW41), compiled from several publications.

NC(=O)c1cc(-c2cnc(NC3CCC3)c3ncnn23)co1 ... 101 to 500 nM
CC(C)N1CCN(c2ccc(Nc3ncc(-c4ccc5c(c4)CNC5=O)n4ncnc34)cc2C(F)(F)F)CC1 ... 101 to 500 nM
CNCc1cc(Nc2ncc(-c3cn[nH]c3)n3ncnc23)ccc1N1CCOCC1 ... > 1000 nM
CC(C)(C)N1C[C@@H]2C[C@H]1CN2c1ccc(Nc2ncc(-c3cc(C(N)=O)n[nH]3)n3ncnc23)cc1 ... 101 to 500 nM
NC(=O)CN1CCC(c2ccc(Nc3ncc(-c4cn[nH]c4)n4ccnc34)cc2)CC1 ... 501 to 1000 nM

// query Consider the molecule CC(=O)c1ccc(-c2cnc(Nc3ccc(N4CCOCC4)cc3)c3ncnn23)s1 and give its recorded IC50.
// result > 1000 nM

// query Consider the molecule CN1CCN(c2ccc(Nc3ncc(-c4ccc(C(N)=O)c(F)c4)n4ncnc34)cc2)CC1 and give its recorded IC50.
// result > 1000 nM

// query Consider the molecule CN1CCN(c2ccc(Nc3ncc(-c4cc[nH]c(=O)c4)n4ncnc34)cc2)CC1 and give its recorded IC50.
// result > 1000 nM
